- Tested on: OACp4C (Esophageal Adenocarcinoma)
- ASSAY_PROTOCOL: Bliss excess, mean over the matrix (fraction); higher = more synergy;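 further: after 72 h of two-drug dosing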
Quick reference for Bliss excess among some compounds
Please reply with the value in numeric form only.

Would you please look over these solved cases?
Data request: Can you look up Bliss excess on OACp4C (Esophageal Adenocarcinoma) for COc1nnc2ccc(N3CCC(c4ccc(OCCN5CCN(C)C(=O)[C@H]5C)cc4)CC3)nn12 [AZD5153] + C[C@@H]1COCCN1C2=NC(=NC(=C2)C3(CC3)[S@](=N)(=O)C)C4=C5C=CNC5=NC=C4 [AZD6738] (first compound max 1 µM, 7x7, partner max 10 µM) ?
Data returned: 0.0085

Data request: Can you check Cc1nc(Nc2ncc(C(=O)Nc3c(C)cccc3Cl)s2)cc(N2CCN(CCO)CC2)n1 [Dasatinib] + CC(=O)Nc1cccc(-n2c(=O)n(C3CC3)c(=O)c3c(Nc4ccc(I)cc4F)n(C)c(=O)c(C)c32)c1 [Trametinib] (first compound max 2 µM, 7x7, partner max 1 µM) next?
Data returned: 0.01

Data request: And CN(C)CCCOc1ccc(-c2ccc3ncc4c(c3c2)n(C2CCOCC2)c(=O)n4C)cn1 [AZD0156] + O=C(c1cc(Cc2n[nH]c(=O)c3ccccc23)ccc1F)N1CCN(C(=O)C2CC2)CC1 [Olaparib] (first compound max 3 µM, partner max 3 µM) ?
Data returned: -0.0005

Data request: Next entry: Cc1c2c(nn1C)CSCc1cc(n(C)n1)CSc1cc(c3ccccc3c1)OCCCc1c(C(=O)O)n(C)c3c-2c(Cl)ccc13 [AZD5991] + CCN(CCO)CCCOc1ccc2c(Nc3cc(CC(=O)Nc4cccc(F)c4)[nH]n3)ncnc2c1 [AZD2811] (first compound max 1 µM, 7x7, partner max 1 µM)
Data returned: 0.0088

Data request: Input COc1cccc2c1C(=O)c1c(O)c3c(c(O)c1C2=O)C[C@@](O)(C(=O)CO)C[C@@H]3O[C@H]1C[C@H](N)[C@H](O)[C@H](C)O1 [Doxorubicin] + Cc1cc2ncnn2cc1Nc1ncc2c(n1)n(C1CCOCC1)c(=O)n2C [AZD7648] (first compound max 1 µM, 7x7, partner max 10 µM)
Data returned: 0.0636

Others:
Data request: Could you share what Bliss excess was measured for CC1(C)CCC(CN2CCN(c3ccc(C(=O)NS(=O)(=O)c4ccc(NCC5CCOCC5)c([N+](=O)[O-])c4)c(Oc4cnc5[nH]ccc5c4)c3)CC2)=C(c2ccc(Cl)cc2)C1 [Venetoclax] + Cc1cc2ncnn2cc1Nc1ncc2c(n1)n(C1CCOCC1)c(=O)n2C [AZD7648] (first compound max 1 µM, 7x7, partner max 10 µM) , tested on OACp4C (Esophageal Adenocarcinoma)?
Data returned: -0.0027

====

- Tested on: OACp4C (Esophageal Adenocarcinoma)
- ASSAY_PROTOCOL: Bliss excess, mean over the matrix (fraction); higher = more synergy
Binary classification by Bliss excess, with -0.02 as an inclusive lower bound for YES; all other cases are NO.

Example results:
Data request: Is it the case that CC1(C)CCC(CN2CCN(c3ccc(C(=O)NS(=O)(=O)c4ccc(NCC5CCOCC5)c([N+](=O)[O-])c4)c(Oc4cnc5[nH]ccc5c4)c3)CC2)=C(c2ccc(Cl)cc2)C1 [Venetoclax] + CCN(CCO)CCCOc1ccc2c(Nc3cc(CC(=O)Nc4cccc(F)c4)[nH]n3)ncnc2c1 [AZD2811] (first compound max 1 µM, 7x7, partner max 1 µM) has Bliss excess reaching or exceeding -0.02?
Data returned: NO

Data request: Query COc1cccc(OCCCN)c1-c1cc(Nc2cnc(C#N)cn2)n[nH]1 [Prexasertib] + C=CCn1c(=O)c2cnc(Nc3ccc(N4CCN(C)CC4)cc3)nc2n1-c1cccc(C(C)(C)O)n1 [AZD1775] (first compound max 1 µM, partner max 1 µM) next
Data returned: YES

Data request: Now try CC1(C)CCC(CN2CCN(c3ccc(C(=O)NS(=O)(=O)c4ccc(NCC5CCOCC5)c([N+](=O)[O-])c4)c(Oc4cnc5[nH]ccc5c4)c3)CC2)=C(c2ccc(Cl)cc2)C1 [Venetoclax] + Cn1cnc2c(F)c(Nc3ccc(Br)cc3Cl)c(C(=O)NOCCO)cc21 [Selumetinib] (first compound max 1 µM, 7x7, partner max 3 µM) .
Data returned: YES

New cases:
Data request: Would you say NC1(C(=O)N[C@@H](CCO)c2ccc(Cl)cc2)CCN(c2ncnc3[nH]ccc23)CC1 [Capivasertib] + Cn1cnc2c(F)c(Nc3ccc(Br)cc3Cl)c(C(=O)NOCCO)cc21 [Selumetinib] (first compound max 10 µM, 7x7, partner max 10 µM) shows Bliss excess at minimum -0.02?
Data returned: NO

Data request: Lookup Cc1c2c(nn1C)CSCc1cc(n(C)n1)CSc1cc(c3ccccc3c1)OCCCc1c(C(=O)O)n(C)c3c-2c(Cl)ccc13 [AZD5991] + Cn1cnc2c(F)c(Nc3ccc(Br)cc3Cl)c(C(=O)NOCCO)cc21 [Selumetinib] (first compound max 1 µM, 7x7, partner max 3 µM)
Data returned: YES

Data request: Same lookup for COc1cccc(OCCCN)c1-c1cc(Nc2cnc(C#N)cn2)n[nH]1 [Prexasertib] + O=C(c1cc(Cc2n[nH]c(=O)c3ccccc23)ccc1F)N1CCN(C(=O)C2CC2)CC1 [Olaparib] (first compound max 1 µM, 7x7, partner max 10 µM) , please.
Data returned: NO

Data request: Same read-out for COc1cc2c(cc1OCCCCCOc1cc3c(cc1OC)C(=O)N1C=C(C)C[C@H]1C=N3)N=C[C@@H]1CC(C)=CN1C2=O [SG3199] + O=C(c1cc(Cc2n[nH]c(=O)c3ccccc23)ccc1F)N1CCN(C(=O)C2CC2)CC1 [Olaparib] (first compound max 0.001 µM, 7x7, partner max 10 µM) ?
Data returned: NO

====

- Tested on: Jurkat (T-Lymphoblastic Leukemia)
- ASSAY_PROTOCOL: Bliss excess, mean over the matrix (fraction); higher = more synergy
ATTRIBUTE_MEASURED: Bliss excess
Please reply with the value in numeric form only.

Would you please look over these solved cases?
Data request: Which Bliss excess is reported for this compound? C=CCn1c(=O)c2cnc(Nc3ccc(N4CCN(C)CC4)cc3)nc2n1-c1cccc(C(C)(C)O)n1 [AZD1775] + O=C(c1cc(Cc2n[nH]c(=O)c3ccccc23)ccc1F)N1CCN(C(=O)C2CC2)CC1 [Olaparib] (first compound max 1 µM, partner max 10 µM)
Data returned: -0.0088

Data request: Okay, and CC(=O)c1c(C)c2cnc(Nc3ccc(N4CCNCC4)cn3)nc2n(C2CCCC2)c1=O [Palbociclib] + CC1(C)CCC(CN2CCN(c3ccc(C(=O)NS(=O)(=O)c4ccc(NCC5CCOCC5)c([N+](=O)[O-])c4)c(Oc4cnc5[nH]ccc5c4)c3)CC2)=C(c2ccc(Cl)cc2)C1 [Venetoclax] (first compound max 10 µM, 7x7, partner max 1 µM) ?
Data returned: 0.0157

Data request: Cc1c2c(nn1C)CSCc1cc(n(C)n1)CSc1cc(c3ccccc3c1)OCCCc1c(C(=O)O)n(C)c3c-2c(Cl)ccc13 [AZD5991] + C=CCn1c(=O)c2cnc(Nc3ccc(N4CCN(C)CC4)cc3)nc2n1-c1cccc(C(C)(C)O)n1 [AZD1775] (first compound max 1 µM, partner max 1 µM) ?
Data returned: -0.0066

More entries:
Data request: Give its Bliss excess value. Item: NC1(C(=O)N[C@@H](CCO)c2ccc(Cl)cc2)CCN(c2ncnc3[nH]ccc23)CC1 [Capivasertib] + CCN(CCO)CCCOc1ccc2c(Nc3cc(CC(=O)Nc4cccc(F)c4)[nH]n3)ncnc2c1 [AZD2811] (first compound max 10 µM, 7x7, partner max 1 µM)
Data returned: -0.0289

Data request: Same lookup for Cc1c2c(nn1C)CSCc1cc(n(C)n1)CSc1cc(c3ccccc3c1)OCCCc1c(C(=O)O)n(C)c3c-2c(Cl)ccc13 [AZD5991] + C[C@@H]1COCCN1C2=NC(=NC(=C2)C3(CC3)[S@](=N)(=O)C)C4=C5C=CNC5=NC=C4 [AZD6738] (first compound max 1 µM, 7x7, partner max 10 µM) , please.
Data returned: -0.0178

Data request: Please give the result for CC1(C)CCC(CN2CCN(c3ccc(C(=O)NS(=O)(=O)c4ccc(NCC5CCOCC5)c([N+](=O)[O-])c4)c(Oc4cnc5[nH]ccc5c4)c3)CC2)=C(c2ccc(Cl)cc2)C1 [Venetoclax] + CCN(CCO)CCCOc1ccc2c(Nc3cc(CC(=O)Nc4cccc(F)c4)[nH]n3)ncnc2c1 [AZD2811] (first compound max 1 µM, 7x7, partner max 1 µM) too.
Data returned: 0.0202

Data request: // same read-out, input: CC1(C)CCC(CN2CCN(c3ccc(C(=O)NS(=O)(=O)c4ccc(NCC5CCOCC5)c([N+](=O)[O-])c4)c(Oc4cnc5[nH]ccc5c4)c3)CC2)=C(c2ccc(Cl)cc2)C1 [Venetoclax] + C1CN(CCC1(C(=O)N[C@@H](CCO)C2=CC=C(C=C2)Cl)N)C3=NC=NC4=C3C=CN4 [Capivasertib] (first compound max 1 µM, 7x7, partner max 3 µM)
Data returned: -0.016
